Values were extracted from the supplement of paper PMC7877785.

# PROTOCOL DETAILS: self-splicing fitness, log relative to wild type (ln ratio); higher = more splicing; Tetrahymena group I intron in knt gene, E. coli kanamycin selection, DiMSum; sequences stand for … in CUCUCU…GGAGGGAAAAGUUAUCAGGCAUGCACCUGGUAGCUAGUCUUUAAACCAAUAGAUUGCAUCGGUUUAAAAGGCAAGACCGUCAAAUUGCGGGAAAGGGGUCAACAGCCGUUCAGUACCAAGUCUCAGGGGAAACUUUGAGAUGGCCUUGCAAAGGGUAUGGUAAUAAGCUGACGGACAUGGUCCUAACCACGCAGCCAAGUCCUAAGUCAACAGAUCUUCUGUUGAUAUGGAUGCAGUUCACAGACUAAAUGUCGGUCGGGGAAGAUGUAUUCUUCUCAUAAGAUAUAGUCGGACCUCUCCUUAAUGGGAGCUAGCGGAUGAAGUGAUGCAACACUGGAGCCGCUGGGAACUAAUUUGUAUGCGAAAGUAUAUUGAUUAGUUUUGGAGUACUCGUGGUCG;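 note: selection with 25 µg/mL kanamycin versus none on LB agar overnight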
# EXPERIMENTAL PARAMETERS: 37 °C
Assignment: determine reported self-splicing fitness (ln) for the given sequences.
One number for each entry.

[[record]]
record_sequence = "GAUGAGCAAUAUUACGCAGG"
observation_type = "self-splicing fitness (ln)"
result = -2.24

[[record]]
record_sequence = "UCGCAGCAAUAUUACGCUCG"
observation_type = "self-splicing fitness (ln)"
result = -1.61


Respectfully, I request self-splicing fitness (ln) for each entry included below.
1. GGGCAGCAAUAUUACGUCCU
2. UCUGAGCAAUAUUACGAAGU

Found:
1. -3.02
2. -1.56
